study_system: T1, H-2K^b class I MHC molecule (mouse)
T1 chain 1: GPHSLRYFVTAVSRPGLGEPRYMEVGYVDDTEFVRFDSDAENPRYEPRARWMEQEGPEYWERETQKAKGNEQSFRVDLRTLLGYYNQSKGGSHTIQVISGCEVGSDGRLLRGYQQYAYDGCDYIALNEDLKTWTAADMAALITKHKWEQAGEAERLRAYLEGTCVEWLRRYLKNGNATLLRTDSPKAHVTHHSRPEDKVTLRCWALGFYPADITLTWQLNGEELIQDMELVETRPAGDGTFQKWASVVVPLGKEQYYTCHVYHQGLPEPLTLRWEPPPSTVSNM
T1 chain 2: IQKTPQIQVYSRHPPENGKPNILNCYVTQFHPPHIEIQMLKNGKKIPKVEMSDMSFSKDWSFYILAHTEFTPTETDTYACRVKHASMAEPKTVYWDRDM
protocol_text: K^b binding capacity
Where no end group is shown, it is not given here. Side-chain parts run from the residue outwards.
measured_parameter: IC50 (nM)
Numbers only, in nM.

The measured IC50 associated with AIIAS([GalNAc-Gal])FAAL [AIIA(β-Gal-[1->3]-α-GalNAc-O-serine)FAAL] reads 7

Cited source for all entries: patent US20110045046A1
